- SYSTEM NAME: BRM (Homo sapiens)
- Construct: made in house; host or cells: High Five insect cells
- PROTOCOL SUMMARY: ATPase catalytic activity assay (ADP-Glo), BRM
- Type: biochemical
- CONDITION DETAILS: 30 nM BRM, 400 μM ATP
Known BRM Max % Inhibition of a selection of molecules

{"SMILES RECORD": "CC(C)S(=O)(=O)n1cc(C(=O)NCC(=O)Nc2nc(-c3cccc(N4C[C@@H](C)O[C@@H](C)C4)c3)cs2)c2ccccc21", "BRM Max % Inhibition": ">80%"}
{"SMILES RECORD": "Cc1cc(C(=O)NCC(=O)Nc2nc(-c3cccc(-c4ccn(C)n4)c3)cs2)cn1S(=O)(=O)C(C)C", "BRM Max % Inhibition": ">90%"}

Problem: Query (molecule): `CC(C)S(=O)(=O)n1cc(C(=O)NCC(=O)Nc2nc(-c3cc(F)cc(N4C[C@@H](C)O[C@@H](C)C4)c3)cs2)c2ccccc21` ; field requested: BRM Max % Inhibition
Result: >90%

Problem: Consider the molecule `CS(=O)(=O)n1cc(C(=O)NCC(=O)Nc2nc(-c3cccc(-c4ccncc4)c3)cs2)c2ccncc21` and give its measured BRM Max % Inhibition.
Result: >80%

###

// IC50 lookup, one value per entry
- SYSTEM NAME: BRG-1 (Homo sapiens, UniProt P51532)
- Construct: made in house; host or cells: High Five insect cells
- Sequence (P51532 whole entry): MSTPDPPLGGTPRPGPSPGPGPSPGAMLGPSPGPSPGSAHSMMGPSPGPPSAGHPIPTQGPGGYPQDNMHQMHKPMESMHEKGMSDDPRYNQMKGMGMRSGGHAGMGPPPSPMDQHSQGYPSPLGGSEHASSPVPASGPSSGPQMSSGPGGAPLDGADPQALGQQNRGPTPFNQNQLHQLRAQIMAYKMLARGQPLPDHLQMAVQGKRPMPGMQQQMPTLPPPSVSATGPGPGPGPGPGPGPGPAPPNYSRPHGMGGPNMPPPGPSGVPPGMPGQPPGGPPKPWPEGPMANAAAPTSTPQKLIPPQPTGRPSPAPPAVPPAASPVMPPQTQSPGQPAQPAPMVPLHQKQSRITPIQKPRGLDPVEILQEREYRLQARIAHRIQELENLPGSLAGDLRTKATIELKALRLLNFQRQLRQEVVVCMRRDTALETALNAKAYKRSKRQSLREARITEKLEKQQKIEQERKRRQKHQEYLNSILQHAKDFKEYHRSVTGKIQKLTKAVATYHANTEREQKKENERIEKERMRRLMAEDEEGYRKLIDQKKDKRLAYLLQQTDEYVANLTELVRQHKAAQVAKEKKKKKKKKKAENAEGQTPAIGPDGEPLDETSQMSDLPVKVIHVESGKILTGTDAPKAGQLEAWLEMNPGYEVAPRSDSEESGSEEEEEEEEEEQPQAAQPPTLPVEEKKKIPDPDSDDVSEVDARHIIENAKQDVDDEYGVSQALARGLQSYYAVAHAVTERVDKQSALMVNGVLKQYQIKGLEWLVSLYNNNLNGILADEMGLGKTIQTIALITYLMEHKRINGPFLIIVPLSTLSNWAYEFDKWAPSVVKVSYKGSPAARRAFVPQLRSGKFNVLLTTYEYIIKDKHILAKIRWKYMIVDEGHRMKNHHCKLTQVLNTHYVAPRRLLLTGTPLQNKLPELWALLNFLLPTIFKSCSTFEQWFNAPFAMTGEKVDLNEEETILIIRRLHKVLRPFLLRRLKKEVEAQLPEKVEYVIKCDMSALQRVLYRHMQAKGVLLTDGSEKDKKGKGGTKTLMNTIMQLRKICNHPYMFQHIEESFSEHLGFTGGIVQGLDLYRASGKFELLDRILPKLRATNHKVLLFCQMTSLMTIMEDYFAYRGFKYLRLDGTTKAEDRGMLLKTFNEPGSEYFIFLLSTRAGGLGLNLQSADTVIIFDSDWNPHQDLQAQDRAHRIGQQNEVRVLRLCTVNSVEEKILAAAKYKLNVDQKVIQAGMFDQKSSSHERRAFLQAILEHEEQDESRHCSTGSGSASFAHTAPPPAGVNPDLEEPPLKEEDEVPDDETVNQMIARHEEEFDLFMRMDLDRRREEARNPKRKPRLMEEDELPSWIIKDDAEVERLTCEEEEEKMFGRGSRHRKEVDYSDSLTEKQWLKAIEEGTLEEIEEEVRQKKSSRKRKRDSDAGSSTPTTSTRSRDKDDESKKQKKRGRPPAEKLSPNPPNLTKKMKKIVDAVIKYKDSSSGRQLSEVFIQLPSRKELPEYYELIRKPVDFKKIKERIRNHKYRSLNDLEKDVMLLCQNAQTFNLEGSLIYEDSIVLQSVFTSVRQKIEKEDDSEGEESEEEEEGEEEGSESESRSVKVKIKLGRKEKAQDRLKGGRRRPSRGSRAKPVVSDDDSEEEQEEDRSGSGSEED
- PROTOCOL SUMMARY: ATPase catalytic activity assay (ADP-Glo), BRG-1
- Type: biochemical
- CONDITION DETAILS: 30 nM BRG-1, 400 μM ATP, 20 nM salmon sperm DNA, read-out: BRG1 IP50 (μM)*

Examples from the recorded data:
{"SMILES RECORD": "CC(C)S(=O)(=O)n1cc(C(=O)NCC(=O)Nc2nc(-c3cccc(N4C[C@@H](C)O[C@@H](C)C4)n3)cs2)cc1Cl", "METRIC NAME": "IC50", "REPORTED VALUE": "1 to 5 µM"}
{"SMILES RECORD": "Cc1cc(-c2cccc(-c3csc(NC(=O)CNC(=O)c4cn(S(C)(=O)=O)c5ccccc45)n3)c2)cc(C)n1", "METRIC NAME": "IC50", "REPORTED VALUE": "0.1 to 1 µM"}
{"SMILES RECORD": "Cc1c(C(=O)NCC(=O)Nc2nc(-c3cccc(-c4ccncc4)c3)cs2)cn(S(=O)(=O)C(C)C)c1C", "METRIC NAME": "IC50", "REPORTED VALUE": "> 5 µM"}

Problem: # IC50 lookup, item `Cc1c(C(=O)NCC(=O)Nc2nc(-c3cccc(-c4ccncc4)c3)cs2)cn(S(C)(=O)=O)c1C`
Result: < 0.1 µM

###

- SYSTEM NAME: BRM (Homo sapiens)
- Construct: made in house; host or cells: High Five insect cells
- PROTOCOL SUMMARY: ATPase catalytic activity assay (ADP-Glo), BRM
- Type: biochemical
- CONDITION DETAILS: 30 nM BRM, 400 μM ATP
Entries and their measured BRM Max % Inhibition follow.

Problem: Which BRM Max % Inhibition value belongs to `Cc1cc(-c2cccc(-c3csc(NC(=O)CNC(=O)c4cn(S(=O)(=O)C(C)C)c(C)c4C)n3)c2)ccn1` ?
Result: >95%

Problem: Data request, read-out BRM Max % Inhibition, for `Cc1cc(C(=O)NCC(=O)Nc2nc(-c3cccc(N4C[C@@H](C)O[C@@H](C)C4)n3)cs2)cn1S(=O)(=O)C(C)C`
Result: >95%

###

Measured IC50 by item
- SYSTEM NAME: BRG-1 (Homo sapiens, UniProt P51532)
- Construct: made in house; host or cells: High Five insect cells
- PROTOCOL SUMMARY: ATPase catalytic activity assay (ADP-Glo), BRG-1
- Format: biochemical
- CONDITION DETAILS: 30 nM BRG-1, 400 μM ATP, 20 nM salmon sperm DNA, read-out: BRG1 IP50 (μM)*

{"SMILES RECORD": "Cc1cc(-c2cccc(-c3csc(NC(=O)CNC(=O)c4cc(C5CC5)n(S(C)(=O)=O)c4)n3)c2)cc(C)n1", "SYSTEM NAME": "BRG-1 (Homo sapiens, UniProt P51532)", "IC50": "0.1 to 1 µM"}
{"SMILES RECORD": "Cc1cc(-c2cccc(-c3csc(NC(=O)CNC(=O)c4cc(C)n(S(=O)(=O)C(C)C)c4)n3)c2)cc(C)n1", "SYSTEM NAME": "BRG-1 (Homo sapiens, UniProt P51532)", "IC50": "0.1 to 1 µM"}
{"SMILES RECORD": "Cc1cc(C(=O)NCC(=O)Nc2nc(-c3cccc(N4C[C@@H](C)O[C@@H](C)C4)n3)cs2)cn1S(=O)(=O)C(C)C", "SYSTEM NAME": "BRG-1 (Homo sapiens, UniProt P51532)", "IC50": "1 to 5 µM"}
{"SMILES RECORD": "C[C@@H]1CN(c2cccc(-c3csc(NC(=O)CNC(=O)c4cn(S(C)(=O)=O)c5ccccc45)n3)c2)C[C@H](C)O1", "SYSTEM NAME": "BRG-1 (Homo sapiens, UniProt P51532)", "IC50": "1 to 5 µM"}
{"SMILES RECORD": "CS(=O)(=O)n1cc(C(=O)NCC(=O)Nc2nc(-c3cccc(N4CCC(O)CC4)c3)cs2)c2ccccc21", "SYSTEM NAME": "BRG-1 (Homo sapiens, UniProt P51532)", "IC50": "1 to 5 µM"}
{"SMILES RECORD": "Cc1nccc(-c2cccc(-c3csc(NC(=O)CNC(=O)c4cn(S(C)(=O)=O)c5c4CCCC5)n3)n2)n1", "SYSTEM NAME": "BRG-1 (Homo sapiens, UniProt P51532)", "IC50": "> 5 µM"}

With those in mind, consider the next molecule.
Problem: What does the data say about its IC50? Entry: `Cc1nccc(-c2cccc(-c3csc(NC(=O)CNC(=O)c4cc(C)n(S(=O)(=O)C(C)C)c4)n3)c2)n1`
Result: < 0.1 µM

###

- SYSTEM NAME: BRM (Homo sapiens)
- Construct: made in house; host or cells: High Five insect cells
- PROTOCOL SUMMARY: ATPase catalytic activity assay (ADP-Glo), BRM
- Format: biochemical
- CONDITION DETAILS: 30 nM BRM, 400 μM ATP
Here the recorded BRM Max % Inhibition is given for each entry.

Problem: Given the molecule Cc1cn(S(C)(=O)=O)cc1C(=O)NCC(=O)Nc1nc(-c2cccc(-c3ccncc3)c2)cs1 [Compound 9] , what is its reported BRM Max % Inhibition?
Result: >80%

Problem: # lookup: BRM Max % Inhibition of Cc1c(C(=O)NCC(=O)Nc2nc(-c3cccc(N4C[C@@H](C)O[C@@H](C)C4)c3)cs2)cn(S(C)(=O)=O)c1C [Compound 15]
Result: >95%

Problem: What measured BRM Max % Inhibition goes with CC(C)S(=O)(=O)n1cc(C(=O)NCC(=O)Nc2nc(-c3cccc(N4C[C@@H](C)O[C@@H](C)C4)n3)cs2)cc1Cl [Compound 37] ?
Result: >80%

###

- SYSTEM NAME: BRM (Homo sapiens, UniProt P51531)
- Construct: made in house; host or cells: High Five insect cells
- Sequence (P51531 whole entry): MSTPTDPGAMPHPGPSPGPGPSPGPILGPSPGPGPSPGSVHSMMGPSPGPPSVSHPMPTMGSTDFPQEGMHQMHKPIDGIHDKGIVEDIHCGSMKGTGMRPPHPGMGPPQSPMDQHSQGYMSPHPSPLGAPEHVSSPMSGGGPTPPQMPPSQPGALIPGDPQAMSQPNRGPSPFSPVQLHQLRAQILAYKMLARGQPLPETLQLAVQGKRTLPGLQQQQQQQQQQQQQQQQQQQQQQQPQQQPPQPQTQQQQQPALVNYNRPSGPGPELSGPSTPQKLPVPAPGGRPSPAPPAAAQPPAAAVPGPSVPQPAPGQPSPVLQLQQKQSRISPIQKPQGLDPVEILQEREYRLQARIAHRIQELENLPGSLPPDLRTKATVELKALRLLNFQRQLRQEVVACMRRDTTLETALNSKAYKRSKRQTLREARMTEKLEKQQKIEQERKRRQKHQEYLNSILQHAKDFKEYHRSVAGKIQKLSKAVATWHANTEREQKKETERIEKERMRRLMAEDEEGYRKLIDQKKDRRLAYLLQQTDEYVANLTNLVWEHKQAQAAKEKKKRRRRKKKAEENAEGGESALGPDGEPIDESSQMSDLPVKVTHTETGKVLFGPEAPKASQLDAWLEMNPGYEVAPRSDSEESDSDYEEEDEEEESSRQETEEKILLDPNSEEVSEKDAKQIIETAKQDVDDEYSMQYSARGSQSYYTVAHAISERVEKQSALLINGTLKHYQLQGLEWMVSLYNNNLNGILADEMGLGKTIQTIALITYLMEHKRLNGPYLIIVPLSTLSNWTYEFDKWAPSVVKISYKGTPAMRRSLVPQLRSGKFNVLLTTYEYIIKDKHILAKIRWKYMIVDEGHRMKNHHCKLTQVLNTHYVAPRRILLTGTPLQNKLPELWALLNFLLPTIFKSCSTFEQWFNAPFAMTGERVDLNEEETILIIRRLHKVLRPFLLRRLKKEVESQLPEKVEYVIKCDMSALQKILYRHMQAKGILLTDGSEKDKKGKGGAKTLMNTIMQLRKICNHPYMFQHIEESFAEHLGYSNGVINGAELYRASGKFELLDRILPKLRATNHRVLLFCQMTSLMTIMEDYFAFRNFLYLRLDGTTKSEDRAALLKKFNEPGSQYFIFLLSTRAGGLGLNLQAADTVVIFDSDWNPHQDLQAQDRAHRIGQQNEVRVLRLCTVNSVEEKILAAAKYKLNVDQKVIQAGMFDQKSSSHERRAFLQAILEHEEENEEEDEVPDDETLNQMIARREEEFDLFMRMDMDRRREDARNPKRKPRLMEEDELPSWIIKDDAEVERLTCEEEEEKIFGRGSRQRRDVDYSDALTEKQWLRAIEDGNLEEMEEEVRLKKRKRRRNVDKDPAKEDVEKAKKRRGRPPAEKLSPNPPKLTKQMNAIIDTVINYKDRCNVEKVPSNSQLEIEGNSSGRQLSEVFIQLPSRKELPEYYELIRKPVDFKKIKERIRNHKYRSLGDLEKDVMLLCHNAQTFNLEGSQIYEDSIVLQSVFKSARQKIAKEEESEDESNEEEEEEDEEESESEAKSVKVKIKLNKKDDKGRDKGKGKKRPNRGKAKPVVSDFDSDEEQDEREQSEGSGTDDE
- PROTOCOL SUMMARY: ATPase catalytic activity assay (ADP-Glo), BRM
- Assay type: biochemical
- CONDITION DETAILS: 30 nM BRM, 400 μM ATP, 20 nM salmon sperm DNA, read-out: BRM IP50 (μM)*
# Lookup of reported IC50 keyed by entry

{"MOLECULE": "CS(=O)(=O)n1cc(C(=O)NCC(=O)Nc2nc(-c3cccc(N4CCC(O)CC4)c3)cs2)c2ccccc21 [Compound 39]", "IC50": "0.1 to 1 µM"}

Problem: Tell me the measured IC50 of CS(=O)(=O)n1cc(C(=O)NCC(=O)Nc2nc(-c3cccc(-c4ccncc4)c3)cs2)c2c1CCCC2 [Compound 5] , please.
Result: < 0.1 µM

Problem: Item under review: Cc1c(C(=O)NCC(=O)Nc2nc(-c3cccc(-c4ccncc4)c3)cs2)cn(S(C)(=O)=O)c1C [Compound 11] . Reported IC50?
Result: < 0.1 µM

Problem: // returns reported IC50 for input Cc1c(C(=O)NCC(=O)Nc2nc(-c3cccc(-c4ccncc4)c3)cs2)cn(S(=O)(=O)C(C)C)c1C [Compound 10]
Result: 0.1 to 1 µM

###

- SYSTEM NAME: BRM (Homo sapiens, UniProt P51531)
- Construct: made in house; host or cells: High Five insect cells
- PROTOCOL SUMMARY: ATPase catalytic activity assay (ADP-Glo), BRM
- Type: biochemical
- CONDITION DETAILS: 30 nM BRM, 400 μM ATP, 20 nM salmon sperm DNA, read-out: BRM IP50 (μM)*
The reader will find reported IC50 values listed item by item below.

Solved entries (count: 3):
{"SMILES RECORD": "Cc1cc(-c2cccc(-c3csc(NC(=O)CNC(=O)c4cn(S(=O)(=O)C(C)C)c5ccccc45)n3)c2)cc(C)n1", "IC50": "< 0.1 µM"}
{"SMILES RECORD": "Cc1nccc(-c2cccc(-c3csc(NC(=O)CNC(=O)c4cc(Cl)n(S(=O)(=O)C(C)C)c4)n3)c2)n1", "IC50": "< 0.1 µM"}
{"SMILES RECORD": "CC(C)S(=O)(=O)n1cc(C(=O)NCC(=O)Nc2nc(-c3cccc(N4C[C@@H](C)O[C@@H](C)C4)c3)cs2)c2ccccc21", "IC50": "0.1 to 1 µM"}

Problem: Looking for the measured IC50 of `C[C@@H]1CN(c2cccc(-c3csc(NC(=O)CNC(=O)c4cnn(C(C)(C)C)c4Cl)n3)c2)C[C@H](C)O1` , can you help?
Result: < 0.1 µM

Problem: Quick check: IC50 of `Cc1cc(-c2cccc(-c3csc(NC(=O)CNC(=O)c4cn(S(=O)(=O)C(C)C)c(C)c4C)n3)c2)cc(C)n1` ?
Result: < 0.1 µM

Problem: // query IC50 value for entry `Cc1cc(-c2cccc(-c3csc(NC(=O)CNC(=O)c4cn(S(=O)(=O)C(C)C)c(C)c4C)n3)c2)nc(C)n1`
Result: < 0.1 µM

Problem: Value lookup for IC50; key = `CC(C)S(=O)(=O)n1cc(C(=O)NCC(=O)Nc2nc(-c3cccc(N4C[C@@H](C)O[C@@H](C)C4)c3)cs2)cc1Cl`
Result: 0.1 to 1 µM

Problem: For `CNC(=O)CN(C)c1cc(-c2cccc(-c3csc(NC(=O)CNC(=O)c4cc(C)n(S(C)(=O)=O)c4)n3)c2)ccn1` , what is its reported IC50?
Result: < 0.1 µM
